Overview of reported inhibition across a group of compounds:
# Assay Explanation: NOD1 signaling inhibitors, primary screen, cell-based, luminescence, uHTS (AID 1578);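 note: HEK-293T reporter cells stimulated with the NOD1 agonist gamma-tri-DAP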
# Condition Description: NOD1-driven NF-kB luciferase reporter cells, at 4 µM, hits give high values
Out of some 290,000 compounds screened, about 3,000 (1%) were called active. This excerpt belongs to a sample that is enriched for actives.
# number only, unit % dropped from output

[[record]]
compound = "Cc1nc(Cl)c(C(=O)NCc2ccccc2)c(C)c1Cl"
result_unit = "%"
readout_value = -37.4

[[record]]
compound = "O=C(Nc1ccc(S(=O)(=O)N2CCCC2)cc1)c1cc(=O)c2ccccc2o1"
result_unit = "%"
readout_value = -3.6

[[record]]
compound = "Cc1ccc(-c2nn(C)c(=O)c3ccccc23)cc1CNC(=O)Cn1nc(-c2ccccc2)c2ccccc2c1=O"
result_unit = "%"
readout_value = 12.8

[[record]]
compound = "CCOC(=O)N/N=C/c1c(C)c(C(=O)c2ccc(F)cc2)n2ccccc12"
result_unit = "%"
readout_value = 48.9

[[record]]
compound = "CCN(CC)CC(=O)NCc1cc(-c2ccc(OC)cc2)no1"
result_unit = "%"
readout_value = -8.1


Data request, read-out inhibition, for O=C(CSCC(=O)Nc1ccccc1)N/N=C/c1c(O)ccc2ccccc12
86.4

Item O=C(NCc1ccccc1)c1c(Cl)nc(Cl)c(Cl)c1Cl has what recorded inhibition?
54.5

###

# Assay Explanation: NOD1 signaling inhibitors, primary screen, cell-based, luminescence, uHTS (AID 1578);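 note: HEK-293T reporter cells stimulated with the NOD1 agonist gamma-tri-DAP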
# Condition Description: NOD1-driven NF-kB luciferase reporter cells, at 4 µM
Out of some 290,000 compounds screened, about 3,000 (1%) were called active. No stated cut-off is given here; in the data, active means inhibition mostly above about 36% (no sharp cut-off); inactive means mostly below about 34%. The entries come from a sample that favours actives as a whole.
Your answer must be one of the following: active, inactive

Please review the following examples before continuing.
[[record]]
compound = "Clc1ccc(-c2nn3c(-c4ccncc4)nnc3s2)c(Cl)c1"
label_value = "active"

[[record]]
compound = "O=c1ccnc(SCCC(F)=C(F)F)[nH]1"
label_value = "inactive"

[[record]]
compound = "COc1ccc(-c2cc3nc(C)cc(N)n3n2)cc1"
label_value = "inactive"

[[record]]
compound = "Clc1cccc(-c2nn3c(-c4ccncc4)nnc3s2)c1"
label_value = "inactive"

[[record]]
compound = "CN(C1CCCCC1)C(CNS(=O)(=O)c1ccc(Cl)cc1)c1ccccc1 (stereo not drawn)"
label_value = "inactive"

[[record]]
compound = "CN=c1scc(-c2ccccc2Br)n1/N=C/c1ccc[nH]1"
label_value = "inactive"

[[record]]
compound = "O=C(CC1C(=O)NCCN1Cc1ccc(-c2ccccc2)cc1)NCCCn1cccn1 (stereo not drawn)"
label_value = "inactive"

[[record]]
compound = "Cc1ccc(C(=O)OCC(=O)c2c(N)n(C)c(=O)n(C)c2=O)cc1S(=O)(=O)N1CCCCC1"
label_value = "inactive"

[[record]]
compound = "COc1ccc(CCNC(=O)c2cccs2)cc1OC"
label_value = "inactive"

[[record]]
compound = "Cc1ccnc(NS(=O)(=O)c2ccc(NC(=O)c3cc(=O)c4ccccc4o3)cc2)n1"
label_value = "inactive"


Could you please tell me the result logged for Brc1ccc(/C=N/Nc2ccc3ccccc3n2)cc1 in this assay?
inactive

Field: outcome | Entry: Cc1nc(SCC(=O)N2CCN(c3ccccc3)CC2)c2oc3ccccc3c2n1
inactive

Could you check what this test reported for COc1ccc(-c2cc3nc(C)cc(C)n3n2)cc1 ?
inactive

Recorded test call requested for Cc1nc2c(c(C)nn2-c2ccccc2)c(C)c1Cl
inactive

Returns: the outcome recorded for COc1cccc(-c2ccc(NC(=O)C3CCCN(CCCn4cccn4)C3)cc2)c1 (stereo not drawn) in this assay.
inactive

Look up the recorded call for CN=c1scc(-c2ccccc2F)n1/N=C/c1ccc(O)c(O)c1O in this test.
inactive
